Test: Cytotoxicity against Chlorocebus aethiops (African green monkey) Vero C1008 cells assessed as cell viability after 72 hr by MTT assay
Type: cell-based
Conditions: chlorocebus sabaeus
CC50 at 72 h strictly under 400 µg/mL means Condition met; at 400 µg/mL or over means Condition not met.

Q. I wonder whether OC1(c2nnc(-c3ccncc3)[nH]2)CCCC1 has CC50 at 72 h below 400 µg/mL. Can you tell?
A. Condition met

Q. Record: CC1CC(C)(C)CC(O)(c2nnc(-c3cccnc3)[nH]2)C1 (configuration not stated)
A. Condition met

Q. Record: Cc1csc(-c2nnc(C3(O)C4CC5CC(C4)CC3C5)[nH]2)c1 (configuration not stated)
A. Condition met

Q. Record: OC1(c2nnc(-c3ccccc3)[nH]2)CCCCC1
A. Condition not met

Q. Record: OC(c1nnc(-c2cccnc2)[nH]1)C1CC=CCC1 (configuration not stated)
A. Condition met

Q. Record: Cc1nnc(C(O)C2CCC(O)C(O)C2)[nH]1 (configuration not stated)
A. Condition met

* * *

Hi there, I'd appreciate the recorded selectivity ratio for every entry that follows.
Experiment: Selectivity index, ratio of CC50 for african green monkey Vero C1008 cells to MIC for Mycobacterium tuberculosis H37Rv
Type: toxicity, cell-based
Conditions: read-out: Selectivity Index
I'd appreciate a reply containing only the number, no unit.

Q. Endpoint output: selectivity ratio of CC1CCC(O)(c2nnc(-c3ccccc3)[nH]2)CC1 (configuration not stated) . Value?
A. 28

Q. Record: CC1CC(C)(C)CC(O)(c2nnc(-c3ccc(O)cc3)[nH]2)C1 (configuration not stated)
A. 33

Q. Record: Cc1nnc(C2(O)CC(C)CC(C)(C)C2)[nH]1 (configuration not stated)
A. 84

Q. Record: OC(c1nnc(-c2ccncc2)[nH]1)C1CC=CCC1 (configuration not stated)
A. 310

Q. Record: OC1CCC(C(O)c2nnc(-c3ccncc3)[nH]2)CC1O (configuration not stated)
A. 477

Q. Record: CC1CCC(O)(c2nnc(-c3ccncc3)[nH]2)CC1 (configuration not stated)
A. 424

Q. Record: OC1(c2nnc(-c3cccnc3)[nH]2)CCCCC1
A. 88

Q. Record: NNC(=O)c1ccncc1
A. 499

Q. Record: OC1(c2nnc(-c3ccccc3)[nH]2)CCCCC1
A. 34

Q. Record: OC1CCC(C(O)c2nnc(-c3ccccc3)[nH]2)CC1O (configuration not stated)
A. 55

Q. Record: OC1(c2nnc(-c3ccncc3)[nH]2)CCCC1
A. 490

Q. Record: CC1CC(C)(C)CC(O)(c2nnc(-c3ccncc3)[nH]2)C1 (configuration not stated)
A. 637

* * *

Assay: Selectivity index, ratio of CC50 for african green monkey Vero C1008 cells to MIC for Mycobacterium tuberculosis H37Rv
Type: toxicity, cell-based
Conditions: read-out: Selectivity Index
Please enter Y where selectivity ratio is greater than or equal to 40, and N where it is lower.

Q. Exam item: decide whether the reported selectivity ratio for Cc1csc(-c2nnc(C3(O)CCCCC3)[nH]2)c1 is at least 40.
A. Y

Q. Record: OC(c1nnc(-c2cccnc2)[nH]1)C1CC=CCC1 (configuration not stated)
A. Y

Q. Record: CC1CC(C)(C)CC(O)(c2nnc(-c3cccnc3)[nH]2)C1 (configuration not stated)
A. N

Q. Record: Cc1csc(-c2nnc(C3(O)C4CC5CC(C4)CC3C5)[nH]2)c1 (configuration not stated)
A. Y

Q. Record: CC1CC(C)(C)CC(O)(c2nnc(-c3ccccc3)[nH]2)C1 (configuration not stated)
A. N

Q. Record: OC(c1nnc(-c2ccccc2)[nH]1)C1CC=CCC1 (configuration not stated)
A. N

Q. Record: Oc1ccc(-c2nnc(C3(O)CCCCC3)[nH]2)cc1
A. Y

Q. Record: Cc1nnc(C2(O)CCCCC2)[nH]1
A. Y

Q. Record: Cc1nnc(C(O)C2CC=CCC2)[nH]1 (configuration not stated)
A. Y

Q. Record: Oc1ccc(-c2nnc(C3(O)CCCC3)[nH]2)cc1
A. Y

Q. Record: Cc1nnc(C(O)C2CCC(O)C(O)C2)[nH]1 (configuration not stated)
A. Y

Q. Record: OC1(c2nnc(-c3ccncc3)[nH]2)CCCCC1
A. Y
